# Tested on: KLEBSIELLA PNEUMONIAE ATCC 8045
# assayProtocol: In vitro antibacterial activity, MIC, BHI agar dilution
# Assay type: cell-based
# testParameters: K. pneumoniae ATCC 8045, unit assumed
Overview of reported MIC across a group of compounds:

Here is how some compounds turned out for MIC.
CC[C@H]1OC(=O)[C@H](C)C(=O)[C@H](C)[C@@H](O[C@@H]2O[C@H](C)C[C@H](N(C)C)[C@H]2O)[C@](C)(OC)C[C@@H](C)C2=NC3CCCCC3N3C(=O)O[C@@]1(C)[C@H]3[C@H]2C (stereo partly shown)    100 µg/mL
CC[C@H]1OC(=O)[C@H](C)C(=O)[C@H](C)[C@@H](O[C@@H]2O[C@H](C)C[C@H](N(C)C)[C@H]2O)[C@](C)(OC)C[C@@H](C)C2=NCC(COC(=O)c3cc4ccccc4n3C)N3C(=O)O[C@@]1(C)[C@H]3[C@H]2C (stereo partly shown)    > 100 µg/mL
CC[C@H]1OC(=O)[C@H](C)C(=O)[C@H](C)[C@@H](O[C@@H]2O[C@H](C)C[C@H](N(C)C)[C@H]2O)[C@](C)(OC)C[C@@H](C)C2=NC[C@H](CCCc3ccccc3)N3C(=O)O[C@@]1(C)[C@H]3[C@H]2C    > 100 µg/mL

Request: Name the reported MIC value associated with the compound `CC[C@H]1OC(=O)[C@H](C)C(=O)[C@H](C)[C@@H](O[C@@H]2O[C@H](C)C[C@H](N(C)C)[C@H]2O)[C@](C)(OC)C[C@@H](C)C2=N[C@H](COCc3ccccc3F)CN3C(=O)O[C@@]1(C)[C@H]3[C@H]2C`
Response: > 100 µg/mL

Request: Which MIC value is on record for CC[C@H]1OC(=O)[C@H](C)C(=O)[C@H](C)[C@@H](O[C@@H]2O[C@H](C)C[C@H](N(C)C)[C@H]2O)[C@](C)(OC)C[C@@H](C)C2=NC(COCc3ccc(Cl)cc3)C(COCc3ccc(Cl)cc3)N3C(=O)O[C@@]1(C)[C@H]3[C@H]2C (stereo partly shown) ?
Response: > 100 µg/mL

Request: Please report the recorded MIC for C=CCN1CC2N=C3[C@H](C)C[C@@](C)(OC)[C@H](O[C@@H]4O[C@H](C)C[C@H](N(C)C)[C@H]4O)[C@@H](C)C(=O)[C@@H](C)C(=O)O[C@H](CC)[C@@]4(C)OC(=O)N(C2C1)[C@@H]4[C@H]3C (stereo partly shown) .
Response: > 100 µg/mL

Request: Recorded MIC of CCC1OC(=O)C(C)C(=O)C(C)C(OC2OC(C)CC(N(C)C)C2O)C(C)(OC)CC(C)C2=NC(CN3CCCCC3)CN3C(=O)OC1(C)C3C2C (stereo not shown) , please.
Response: 100 µg/mL

Request: Bench note: what MIC did CC[C@H]1OC(=O)[C@H](C)C(=O)[C@H](C)[C@@H](O[C@@H]2O[C@H](C)C[C@H](N(C)C)[C@H]2O)[C@](C)(OC)C[C@@H](C)C2=NC3CN(C(C)c4ccccc4)CC3N3C(=O)O[C@@]1(C)[C@H]3[C@H]2C (stereo partly shown) show?
Response: > 100 µg/mL

Request: Any idea what MIC was measured for `CC[C@H]1OC(=O)[C@H](C)C(=O)[C@H](C)[C@@H](O[C@@H]2O[C@H](C)C[C@H](N(C)C)[C@H]2O)[C@](C)(OC)C[C@@H](C)C2=NC[C@H](Cc3ccc(OCc4ccccc4)cc3)N3C(=O)O[C@@]1(C)[C@H]3[C@H]2C` ?
Response: > 100 µg/mL

Request: For the compound shown here, CCC1OC(=O)C(C)C(=O)C(C)C(OC2OC(C)CC(N(C)C)C2O)C(C)(OC)CC(C)C2=NCC(COCc3ccccc3F)N3C(=O)OC1(C)C3C2C (stereo not shown) , give the reported MIC.
Response: 100 µg/mL

* * *

# Test system: STREPTOCOCCUS PYOGENES EES61
# assayProtocol: In vitro antibacterial activity, MIC, BHI agar dilution
# Format: cell-based
# testParameters: S. pyogenes EES61, unit assumed
Entries and their MIC values follow.
Please state the figure in µg/mL; there is no need to write the unit.

Request: Fill in: MIC of CC[C@H]1OC(=O)[C@H](C)C(=O)[C@H](C)[C@@H](O[C@@H]2O[C@H](C)C[C@H](N(C)C)[C@H]2O)[C@](C)(OC)C[C@@H](C)C2=NC(COCc3ccccc3)C(COCc3ccccc3)N3C(=O)O[C@@]1(C)[C@H]3[C@H]2C (stereo partly drawn) is ___
Response: 0.05

Request: // returns reported MIC for input `CC[C@H]1OC(=O)[C@H](C)C(=O)[C@H](C)[C@@H](O[C@@H]2O[C@H](C)C[C@H](N(C)C)[C@H]2O)[C@](C)(OC)C[C@@H](C)C2=NC[C@@H](C)N3C(=O)O[C@@]1(C)[C@H]3[C@H]2C`
Response: 0.01

Request: Given the entry CCC1OC(=O)C(C)C(=O)C(C)C(OC2OC(C)CC(N(C)C)C2O)C(C)(OC)CC(C)C2=NCC(CSc3ccccc3)(CN(C)C)N3C(=O)OC1(C)C3C2C (stereo not drawn) , report its measured MIC.
Response: 0.2

* * *

# Test system: PSEUDOMONAS CEPACIA 296I
# assayProtocol: In vitro antibacterial activity, MIC, BHI agar dilution
# Format: cell-based
# testParameters: P. cepacia 296I, unit assumed
measuredAttribute: MIC (µg/mL)
Number in µg/mL, nothing else.

See these solved cases before continuing.
CC[C@H]1OC(=O)[C@H](C)C(=O)[C@H](C)[C@@H](O[C@@H]2O[C@H](C)C[C@H](N(C)C)[C@H]2O)[C@](C)(OC)C[C@@H](C)C2=NC[C@H](Cc3ccccc3)N3C(=O)O[C@@]1(C)[C@H]3[C@H]2C    25
CC[C@H]1OC(=O)[C@H](C)C(=O)[C@H](C)[C@@H](O[C@@H]2O[C@H](C)C[C@H](N(C)C)[C@H]2O)[C@](C)(OC)C[C@@H](C)C2=NC[C@H](Cc3ccc(O)cc3)N3C(=O)O[C@@]1(C)[C@H]3[C@H]2C    100
CCC1OC(=O)C(C)C(=O)C(C)C(OC2OC(C)CC(N(C)C)C2O)C(C)(OC)CC(C)C2=NCC(CCc3ccccc3)N3C(=O)OC1(C)C3C2C (stereo not drawn)    100
CC[C@H]1OC(=O)[C@H](C)C(=O)[C@H](C)[C@@H](O[C@@H]2O[C@H](C)C[C@H](N(C)C)[C@H]2O)[C@](C)(OC)C[C@@H](C)C2=NCC(COC(=O)c3ccc(Cl)cc3)N3C(=O)O[C@@]1(C)[C@H]3[C@H]2C (stereo partly drawn)    25

Request: So what's the measured MIC for this one? CC[C@H]1OC(=O)[C@H](C)C(=O)[C@H](C)[C@@H](O[C@@H]2O[C@H](C)C[C@H](N(C)C)[C@H]2O)[C@](C)(OC)C[C@@H](C)C2=NCC(COC(=O)c3ccc([N+](=O)[O-])cc3)N3C(=O)O[C@@]1(C)[C@H]3[C@H]2C (stereo partly drawn)
Response: 25

* * *

A collection of compounds and their measured MIC
# Test system: STAPHYLOCOCCUS AUREUS CMX 642A
# assayProtocol: In vitro antibacterial activity, MIC, BHI agar dilution
# Type: cell-based
# testParameters: S. aureus CMX 642A, unit assumed
Please reply with the bare figure in µg/mL and do not write the unit itself.

Reference set (2 entries):
CC[C@H]1OC(=O)[C@H](C)C(=O)[C@H](C)[C@@H](O[C@@H]2O[C@H](C)C[C@H](N(C)C)[C@H]2O)[C@](C)(OC)C[C@@H](C)C2=NC3CN(CCOc4ccccc4)CC3N3C(=O)O[C@@]1(C)[C@H]3[C@H]2C (stereo partly drawn)    0.39
CCC1OC(=O)C(C)C(=O)C(C)C(OC2OC(C)CC(N(C)C)C2O)C(C)(OC)CC(C)C2=NCC(C)(CN(C)C)N3C(=O)OC1(C)C3C2C (stereo not drawn)    1.56

Request: Value wanted: MIC (STAPHYLOCOCCUS AUREUS CMX 642A) of entry `CC[C@H]1OC(=O)[C@H](C)C(=O)[C@H](C)[C@@H](O[C@@H]2O[C@H](C)C[C@H](N(C)C)[C@H]2O)[C@](C)(OC)C[C@@H](C)C2=N[C@H](CN3CCOCC3)CN3C(=O)O[C@@]1(C)[C@H]3[C@H]2C`
Response: 0.39

* * *

# System: KLEBSIELLA PNEUMONIAE ATCC 8045
# assayProtocol: In vitro antibacterial activity, MIC, BHI agar dilution
# Assay type: cell-based
# testParameters: K. pneumoniae ATCC 8045, unit assumed
measuredAttribute: MIC (µg/mL)
Lab book: enter the figure in µg/mL, no units written.

CC[C@H]1OC(=O)[C@H](C)C(=O)[C@H](C)[C@@H](O[C@@H]2O[C@H](C)C[C@H](N(C)C)[C@H]2O)[C@](C)(OC)C[C@@H](C)C2=NC[C@@H](C)N3C(=O)O[C@@]1(C)[C@H]3[C@H]2C [Example 9]    25

From here, focus on the item given below.
Request: Which MIC value belongs to CC[C@H]1OC(=O)[C@H](C)C(=O)[C@H](C)[C@@H](O[C@@H]2O[C@H](C)C[C@H](N(C)C)[C@H]2O)[C@](C)(OC)C[C@@H](C)C2=N[C@@H]3CNC[C@@H]3N3C(=O)O[C@@]1(C)[C@H]3[C@H]2C [Example 19] ?
Response: 12.5
